# targetOrTestSystem: vanilloid receptor (VR1) (Homo sapiens, UniProt Q8NER1)
# Construct: expressed in transfected cells; host or cells: CHO K1 cells (ECACC), stably transfected
# Sequence (Q8NER1 whole entry): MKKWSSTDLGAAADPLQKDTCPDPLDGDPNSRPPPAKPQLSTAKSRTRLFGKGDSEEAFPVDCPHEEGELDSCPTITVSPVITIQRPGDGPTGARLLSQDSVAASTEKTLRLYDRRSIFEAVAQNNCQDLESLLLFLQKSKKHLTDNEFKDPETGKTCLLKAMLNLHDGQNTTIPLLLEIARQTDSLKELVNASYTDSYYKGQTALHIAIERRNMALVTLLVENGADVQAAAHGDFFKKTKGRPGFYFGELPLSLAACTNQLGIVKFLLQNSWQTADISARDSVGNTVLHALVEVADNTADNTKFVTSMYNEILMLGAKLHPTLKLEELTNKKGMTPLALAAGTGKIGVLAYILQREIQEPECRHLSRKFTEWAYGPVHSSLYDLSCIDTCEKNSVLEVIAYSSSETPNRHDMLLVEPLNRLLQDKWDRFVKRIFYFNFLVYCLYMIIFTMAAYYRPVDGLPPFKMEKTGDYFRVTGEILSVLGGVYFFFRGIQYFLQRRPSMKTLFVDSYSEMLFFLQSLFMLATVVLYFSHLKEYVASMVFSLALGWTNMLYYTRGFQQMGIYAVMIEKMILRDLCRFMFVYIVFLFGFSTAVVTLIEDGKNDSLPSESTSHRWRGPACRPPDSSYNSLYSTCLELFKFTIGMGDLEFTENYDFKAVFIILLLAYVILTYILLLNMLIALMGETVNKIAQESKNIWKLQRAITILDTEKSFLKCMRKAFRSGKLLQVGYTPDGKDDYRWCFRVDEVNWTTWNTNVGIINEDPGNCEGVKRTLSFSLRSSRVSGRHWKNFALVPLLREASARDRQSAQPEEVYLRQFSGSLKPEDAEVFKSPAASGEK
# assay: Functional testing on vanilloid receptor (VR1): FLIPR Ca2+ inflow assay in CHO K1 cells stably transfected with the VR1 gene
# Assay type: cell-based
# measurementConditions: CHO-K1, stimulation compared to 10 μM CP (capsaicin)
List of activation at 10 µM values.
Quick note: give the figure in %, leave out the unit.

Past entries and their recorded results:
1. CSc1ccccc1NC(=O)N1CCC2(CC1)CC(c1ccc(C(C)(C)C)cc1)=NO2 :: -0.22
2. COc1ccc(NC(=O)N2CCC3(CC2)CC(c2cccc(OC)c2)=NO3)cc1 :: 0.01
3. COc1cccc(C2=NOC3(CCN(C(=O)Nc4ccc(SC)cc4)CC3)C2)c1 :: -0.07
4. CC(C)(C)c1ccc(NC(=O)N2CCC3(CC2)CC(c2ccccc2F)=NO3)cc1 :: 2
5. Cc1ccc(C2=NOC3(CCN(C(=S)NC4CCCC4)CC3)C2)cc1 :: -0.28
6. COc1cccc(C2=NOC3(CCN(C(=O)Nc4ccc(C(C)C)cc4)CC3)C2)c1 :: 0.1
7. CC(C)c1ccc(NC(=O)N2CCC3(CC2)CC(c2ccc(C(C)(C)C)cc2)=NO3)cc1 :: 0.89
8. CCc1ccc(NC(=O)N2CCC3(CC2)CC(c2ccccc2)=NO3)cc1 :: 0.12
9. CC(C)(C)c1ccc(/C=C/C(=O)N2CCC3(CC2)CC(c2cccc(F)c2)=NO3)cc1 :: 0
10. O=C(Nc1ccc(C(F)(F)F)cc1)N1CCC2(CC1)CC(c1ccc(Cl)cc1)=NO2 :: -0.21

The compound CC1CN(C(=O)Nc2ccc(C(C)(C)C)cc2)CCC12CC(c1ccccc1)=NO2 (stereo not drawn) , when measured on vanilloid receptor (VR1) (Homo sapiens, UniProt Q8NER1), yielded activation at 10 µM of -1

Measured activation at 10 µM (vanilloid receptor (VR1) (Homo sapiens, UniProt Q8NER1)), entry CC(C)c1ccc(NC(=O)N2CCC3(CC2)CC(c2ccc(Cl)cc2)=NO3)cc1 : -0.35

Form: item O=C(Nc1ccc(Br)cc1)N1CCC2(CC1)CC(c1ccccc1)=NO2 ; test system vanilloid receptor (VR1) (Homo sapiens, UniProt Q8NER1); activation at 10 µM: 0.06
